Test system: HMVEC cells stimulated with b-FGF
Test: b-FGF driven HMVEC proliferation screen
Assay type: cell-based
Conditions: b-FGF 2.5 ng/mL, 6 days, Alamar blue; read-out: b-FGF LC50
Experimental: HMVEC cells were plated on collagen-coated plates at 2500 cells/well for 24 hours. Various concentrations of test compounds were then added to duplicate plates. […] Anti-FGF antibody (final concentration of 5 μg/mL) was added to four control wells as a standard inhibitor. At the same time the compounds were added, a T-zero plate was generated (Alamar blue was added to a plate and read after three hours). The plates with the compounds were incubated for one hour at 37° C., 5% carbon dioxide. […]
Readout kind: log10 CC50 (log10 of the value in nM)
log10 CC50, nM

Q. # get_value(readout= log10 CC50, system= HMVEC cells stimulated with b-FGF) for `O=C(Nc1cccc2cccnc12)c1cc(-c2ccccc2)ccn1`
A. 2.98

Q. # get_value(readout= log10 CC50, system= HMVEC cells stimulated with b-FGF) for COc1cc(NC(=O)c2cc(N3CCN(C)CC3)ccn2)c2ncccc2c1 [Compound 54]
A. 1.30

Q. # get_value(readout= log10 CC50, system= HMVEC cells stimulated with b-FGF) for `O=C(Nc1cc(-c2ccccc2)cc2cccnc12)c1ccccn1`
A. 2.58

Q. # get_value(readout= log10 CC50, system= HMVEC cells stimulated with b-FGF) for `CN(C)CCCOc1cccnc1C(=O)Nc1cccc2cccnc12`
A. 3.40

Q. # get_value(readout= log10 CC50, system= HMVEC cells stimulated with b-FGF) for `O=C(Nc1cccc2nccnc12)c1ccccn1`
A. 2.26

---

Tested on: HMVEC cells stimulated with VEGF 165
Experiment: VEGF driven HMVEC proliferation screen
Format: cell-based
Settings: VEGF 165 10 ng/mL, 6 days, Alamar blue; read-out: VEGF LC50
Measured CC50 by item
Numbers only here, please. The scale is nM.

Before answering, review these 10 worked examples.
molecule="CN1CCN(c2ccnc(C(=O)Nc3cccc4cccnc34)c2)CC1 [Compound 34]" value=13
molecule=CN1CCN(c2ccc(NC(=O)c3ccccn3)c3ncccc23)CC1 value=28
molecule=O=C(Nc1cccc2cccnc12)c1cc(N2CCC(N3CCCC3)CC2)ccn1 value=42
molecule="CN1CCC[C@H]1C(=O)Nc1cccc2cccnc12 [Compound 58]" value=190
molecule=O=C(Nc1cccc2cccnc12)c1cc(N2CCN(Cc3ccccc3)CC2)ccn1 value=840
molecule=O=C(Nc1cccc2nccnc12)c1ccccn1 value=170
molecule=O=C(Nc1cccc2cccnc12)c1cc(-c2ccccc2)ccn1 value=640
molecule="COc1cc(NC(=O)c2cc(N3CCN(C)CC3)ccn2)c2ncccc2c1 [Compound 54]" value=15
molecule=O=C(Nc1cccc2cccnc12)c1cc(SCc2ccccc2)ccn1 value=61
molecule=CN(C)CCN(C)c1ccc(NC(=O)c2ccccn2)c2ncccc12 value=3700

Please find the next molecule below.
Q. # get_value(readout= CC50, system= HMVEC cells stimulated with VEGF 165) for `O=C(Nc1cccc2cccnc12)c1ccc(-c2ccccc2)cn1`
A. 4700

---

Measured CC50 by item
Tested on: Primary Human Dermal Fibroblasts
Experiment: in vitro
Settings: read-out: D. Fibroblast LC50; 6 days, Alamar blue

Before answering, review these 4 worked examples.
compound="COc1cc(NS(=O)(=O)c2ccccn2)c2ncccc2c1 [Compound 72]" readout_kind=CC50 value="> 10 µM"
compound="O=C(Nc1cccc2cccnc12)c1cc(N2CCSCC2)ccn1 [Compound 44]" readout_kind=CC50 value="> 10 µM"
compound="O=C(Nc1cccc2cccnc12)c1cc(NCCN2CCOCC2)ccn1 [Compound 35]" readout_kind=CC50 value="> 10 µM"
compound="CCN1CCN(c2ccnc(C(=O)Nc3cccc4cccnc34)c2)CC1 [Compound 41]" readout_kind=CC50 value="4.2 µM"

Please find the next compound below.
Q. Look up CC50 for this compound: Cc1cccc(C(=O)Nc2cccc3cccnc23)n1 [Compound 25]
A. > 10 µM

---

Tested on: Primary Human Dermal Fibroblasts
Assay: in vitro
Conditions: read-out: D. Fibroblast LC50; 6 days, Alamar blue; trifluoroacetate salt
Structures can show the parent of a compound that is named as a salt.
Readout kind: CC50 (nM)
Numbers only here, please. The scale is nM.

Q. Look up CC50 for this compound: CN1CCN(c2ccnc(C(=O)Nc3cccc4cccnc34)c2)CC1 [Compound 100, trifluoroacetate salt]
A. 2900

---

System: HMVEC cells stimulated with VEGF 165
Assay: VEGF driven HMVEC proliferation screen
Type: cell-based
Readout kind: log10 of CC50 (log10 of the value in µM)
log10 CC50, µM

Before answering, review these 4 worked examples.
molecule="O=C(Nc1cccc2cccnc12)c1ncccc1OCCN1CCOCC1 [Compound 48]" test_system="HMVEC cells stimulated with VEGF 165" value=-0.02
molecule="O=C(Nc1ccc(Cl)c2cccnc12)c1ccccn1 [Compound 18]" test_system="HMVEC cells stimulated with VEGF 165" value=-0.77
molecule="O=C(Nc1cccc2cccnc12)c1cc(NCCN2CCOCC2)ccn1 [Compound 35]" test_system="HMVEC cells stimulated with VEGF 165" value=-0.92
molecule="CCN(CCN(C)C)c1ccnc(C(=O)Nc2cccc3cccnc23)c1 [Compound 40]" test_system="HMVEC cells stimulated with VEGF 165" value=-1.80

Please find the next molecule below.
Q. Look up log10 of CC50 for this molecule: Cc1cccc(C(=O)Nc2cccc3cccnc23)n1 [Compound 25]
A. 0.40

---

Measured log10(CC50) by item
Test system: HMVEC cells stimulated with VEGF 165
Experiment: VEGF driven HMVEC proliferation screen
Format: cell-based
log10 CC50, µM

Before answering, review these 3 worked examples.
compound="CCOc1cc(NC(=O)c2ccccn2)c2ncccc2c1 [Compound 8]" readout_kind=log10(CC50) value=-1.02
compound="CCN(CC)c1ccccc1NC(=O)c1ccccn1 [Compound 84]" readout_kind=log10(CC50) value=0.20
compound="Cc1ccc(NS(=O)(=O)c2ccccn2)c2ncccc12 [Compound 74]" readout_kind=log10(CC50) value=-0.92

Q. Look up log10(CC50) for this compound: O=C(Nc1cccc2cccnc12)c1cc2ccccc2cn1 [Compound 28]
A. -0.32

Q. Look up log10(CC50) for this compound: Cc1cccnc1C(=O)Nc1cccc2cccnc12 [Compound 24]
A. -0.85

Q. Look up log10(CC50) for this compound: COc1ccnc(C(=O)Nc2cccc3cccnc23)c1 [Compound 29]
A. -1.22

Q. Look up log10(CC50) for this compound: O=C(Nc1cccc2cccnc12)c1cc(N2CCN(CCO)CC2)ccn1 [Compound 39]
A. -0.66

---

Tested on: HMVEC cells stimulated with b-FGF
Experiment: b-FGF driven HMVEC proliferation screen
Type: cell-based
Lab note: anything with CC50 below 200 nM is marked fulfilled; values at 200 nM or higher are marked not fulfilled.

smiles_record=CN1CCCN(c2ccnc(C(=O)Nc3cccc4cccnc34)c2)CC1 assigned_class=fulfilled
smiles_record=CCOc1cc(NC(=O)c2ccccn2)c2ncccc2c1 assigned_class=fulfilled
smiles_record=O=C(Nc1cc(Cl)cc2cccnc12)c1ccccn1 assigned_class=fulfilled
smiles_record=O=C(Nc1cc(Cl)c(Cl)c2cccnc12)c1ccccn1 assigned_class="not fulfilled"
smiles_record=Cc1ccc2cccc(NC(=O)c3ccccn3)c2n1 assigned_class="not fulfilled"

Q. Answer whether the compound `CCN(C)c1c(NC(=O)c2ccccn2)ccc(Cl)c1Cl` has CC50 strictly less than 200 nM
A. not fulfilled

Q. Answer whether the compound `CCCOc1cccnc1C(=O)Nc1cccc2cccnc12` has CC50 strictly less than 200 nM
A. not fulfilled

Q. Answer whether the compound `O=C(Nc1cc(N2CCOCC2)cc2cccnc12)c1ccccn1` has CC50 strictly less than 200 nM
A. fulfilled

Q. Answer whether the compound `Cc1ccc(NC(=O)c2ccccn2)c2ncccc12` has CC50 strictly less than 200 nM
A. fulfilled

Q. Answer whether the compound `CC(C)N(C)c1ccccc1NC(=O)c1ccccn1` has CC50 strictly less than 200 nM
A. not fulfilled

Q. Answer whether the compound `O=C(Nc1cccc2cc(Cl)cnc12)c1ccccn1` has CC50 strictly less than 200 nM
A. not fulfilled

Q. Answer whether the compound `O=C(Nc1ccc(N2CCOCC2)c2cccnc12)c1ccccn1` has CC50 strictly less than 200 nM
A. fulfilled

Q. Answer whether the compound `CCN(CC)c1ccccc1NC(=O)c1ccccn1` has CC50 strictly less than 200 nM
A. not fulfilled

Q. Answer whether the compound `COc1cc(NC(=O)c2ccccn2)c2ncccc2c1` has CC50 strictly less than 200 nM
A. fulfilled

Q. Answer whether the compound `O=C(Nc1cccc2cccnc12)c1cccc(Br)n1` has CC50 strictly less than 200 nM
A. fulfilled

Q. Answer whether the compound `O=C(Nc1cccc2cccnc12)c1cc(N2CCN(CCO)CC2)ccn1` has CC50 strictly less than 200 nM
A. not fulfilled

---

Tested on: HMVEC cells stimulated with VEGF 165
Experiment: VEGF driven HMVEC proliferation screen
Format: cell-based
Conditions: VEGF 165 10 ng/mL, 6 days, Alamar blue; L-tartrate salt; read-out: VEGF LC50
Counter-ions that a name gives are not always drawn.
Readout kind: CC50
Write the numeric value and follow it with the unit.

Q. Look up CC50 for this compound: CN1CCC[C@H]1C(=O)Nc1cccc2cccnc12 [Compound 108, L-tartrate salt]
A. 290 nM

These entries and their values trace back to patent US20070254894A1.
